molecular target: HLA-A*03:01; experiment: IEDB peptide-MHC binding, purified MHC/competitive/fluorescence; filed as Kd, often an IC50 or EC50 that approximates it; bounds were set here for any values at or beyond the usual limits of such assays; details: source organism: Entamoeba histolytica HM-1:IMSS
Collected Kd values appear next to each entry.

EVIRATYPS: ≥ 20 µM

From here, focus on the item given below.
### Prompt Please report the recorded Kd for `RTFDRFFEE` .
### Response ≥ 20 µM

* * *

target: HLA-A*68:02; assay: IEDB peptide-MHC binding, purified MHC/direct/fluorescence; filed as Kd, often an IC50 or EC50 that approximates it; bounds were set here for any values at or beyond the usual limits of such assays; conditions: source organism: Toxoplasma gondii
pKd: −log10 of the molar value.
VALUE_KIND: pKd

### Prompt Form field: reported pKd of `VSSHKGWAK`
### Response ≤ 4.70
